Data origin, for the record: patent US20250179103A1

Target: Recombinant STAT6 protein (STAT6(W123-T658)) (Homo sapiens, UniProt P42226)
Construct: Recombinant STAT6 protein (STAT6(W123-T658))
Sequence (P42226 123-658): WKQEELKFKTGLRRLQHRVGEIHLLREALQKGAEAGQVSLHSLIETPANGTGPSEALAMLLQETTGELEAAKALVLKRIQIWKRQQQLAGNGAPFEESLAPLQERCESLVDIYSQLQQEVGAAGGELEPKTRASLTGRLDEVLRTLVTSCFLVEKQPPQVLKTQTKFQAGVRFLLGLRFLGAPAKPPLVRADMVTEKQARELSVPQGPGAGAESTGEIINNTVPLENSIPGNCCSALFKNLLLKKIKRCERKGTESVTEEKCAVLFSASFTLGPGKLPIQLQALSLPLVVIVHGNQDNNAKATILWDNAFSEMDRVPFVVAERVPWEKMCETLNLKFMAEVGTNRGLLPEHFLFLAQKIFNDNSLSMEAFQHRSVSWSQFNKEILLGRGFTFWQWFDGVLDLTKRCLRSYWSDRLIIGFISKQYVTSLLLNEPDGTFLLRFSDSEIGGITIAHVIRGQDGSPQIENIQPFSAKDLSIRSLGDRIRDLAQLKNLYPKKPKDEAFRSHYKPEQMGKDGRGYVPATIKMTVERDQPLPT
Test: STAT6 Fluorescence Polarization (FP) Assay
Details: STAT6(W123-T658) 250 nM, probe 5-FAM-ApYKPFQDLI-NH2 2 nM, 45-minute incubation
Quick reference for IC50 among some compounds

CNC(=O)Cc1cc(-c2ccccc2)ccc1NC(=O)[C@@H]1CC[C@@H]2CCN(C(C)=O)C[C@H](NC(=O)c3cc4cc(C(F)(F)P(=O)(O)O)ccc4s3)C(=O)N21    0.3 to 3 µM

Consider the compound Cc1ccc2onc(C(=O)N3CC[C@H]4CC[C@@H](C(=O)N5CCOCC5)N4C(=O)[C@@H](NC(=O)c4ccc5cnc(CP(=O)(O)O)cc5c4)C3)c2c1 and give its measured IC50.
3 to 30 µM

What does the data say about its IC50? Entry: CC(C)CN1CC[C@H]2CC[C@@H](C(=O)N3CC(C(=O)N4CCOCC4)C3)N2C(=O)[C@@H](NC(=O)c2cc3cc(C(F)(F)P(=O)(O)O)ccc3s2)C1
3 to 30 µM

IC50 for CC(=O)N1CC[C@H]2CC[C@@H](C(=O)N(C)c3ccccc3)N2C(=O)[C@@H](NC(=O)c2ccc3ccc(P(=O)(O)O)cc3c2)C1 ?
> 30 µM

Record request: IC50 value, item COc1ccc2c(C(=O)N3CC[C@H]4CC[C@@H](C(=O)N5CCOCC5)N4C(=O)[C@@H](NC(=O)c4ccc5ccc(C(F)P(=O)(O)O)cc5c4)C3)noc2c1 (stereo partly shown)
≤ 0.3 µM

I have this compound here, Cc1ccc2[nH]nc(C(=O)N3CC[C@H](NC(=O)c4ccc5ccc(C(F)(F)P(=O)(O)O)cc5c4)C(=O)N4[C@H](CC[C@H]4C(=O)N4C[C@H](c5ccccc5)[C@@H](C#N)C4)C3)c2c1 (relative stereo) , and I need its recorded IC50.
≤ 0.3 µM

Value lookup for IC50; key = CC(=O)N1CC[C@H]2CC[C@@H](C(=O)N3C[C@@H]4[C@H](C3)[C@H]3CS(=O)(=O)C[C@@H]43)N2C(=O)[C@@H](NC(=O)c2cc3cc(C(F)(F)P(=O)(O)O)ccc3s2)C1
0.3 to 3 µM

// lookup IC50 for O=C(N[C@H]1CSCC[C@H]2CC[C@@H](C(=O)N3CC(c4cccnc4)C3)N2C1=O)c1cc2cc(C(F)(F)P(=O)(O)O)ccc2s1
3 to 30 µM

# input compound: CC(=O)N1CC[C@H]2CC[C@@H](C(=O)N(C)c3ccccc3)N2C(=O)[C@@H](NC(=O)c2cc3cc(C(C)P(=O)(O)O)ccc3s2)C1 (stereo partly shown) ; wanted: its IC50
> 30 µM

Field request: IC50 | item: CC(=O)N1CC[C@H]2CC[C@@H](C(=O)N(C)c3ccc(C(C)(C)C)cc3)N2C(=O)[C@@H](NC(=O)c2cc3cc(C(F)(F)P(=O)(O)O)ccc3[nH]2)C1
≤ 0.3 µM
